Biological target: Arginase-2, mitochondrial (Homo sapiens)
Sequence (whole entry): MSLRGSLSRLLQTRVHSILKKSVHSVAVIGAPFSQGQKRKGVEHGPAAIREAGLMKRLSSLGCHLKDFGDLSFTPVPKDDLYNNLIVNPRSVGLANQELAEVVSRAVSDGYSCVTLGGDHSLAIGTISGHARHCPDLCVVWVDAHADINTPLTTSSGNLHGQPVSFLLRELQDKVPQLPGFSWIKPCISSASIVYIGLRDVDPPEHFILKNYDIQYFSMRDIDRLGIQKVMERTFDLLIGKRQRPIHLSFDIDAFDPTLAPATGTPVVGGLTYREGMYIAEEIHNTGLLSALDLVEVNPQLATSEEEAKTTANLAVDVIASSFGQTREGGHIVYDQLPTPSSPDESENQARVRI
Test: in vitro enzyme assay to detect the production of urea directly proportional to the activity of Arginase II; further: in the data most compounds retested in dose-response had high values
Format: functional
Set-up: scale not given: direction of the effect not stated beside the values
Settings: 33.3 µM
Entries and their Percent Effect
// units = %; emit number, no label

CN(C)C(=O)CN1C[C@@H]2CC[C@H](C1)N(Cc1cc(F)ccc1F)C2: -2.79
Cc1nc(CN2CCCC(N(C)Cc3c(C)noc3C)C2)no1 (centres undefined): -0.21
CN(C(=O)Cn1nc(-c2ccc(F)cc2)ccc1=O)C1CCS(=O)(=O)C1 (centres undefined): -16.6
c1ccc(-c2cnc(CN3CCn4c(nnc4C4CC4)C3)o2)cc1: 6.9

// O=C(CN1CCCC(Cn2cncn2)C1)NCc1ccco1 (centres undefined) : Percent Effect value = 8.27

Kindly note the recorded Percent Effect for O=C(c1ccco1)N1CCCC(c2cc(C(F)F)n3ncnc3n2)C1 (centres undefined) , which is 3.02

The measured Percent Effect associated with `Cc1cc(-c2cnn(CCNC(=O)c3cccnc3)c2C2CC2)on1` reads -3.48

----------
Each entry below lists one item and its recorded Percent Effect value.
target: Sialic acid-binding Ig-like lectin 9 (Homo sapiens) (UniProt Q9Y336); assay: Hs-Siglec9 ALPHAscreen SOP 20170721; parameters: scale not given: direction of the effect not stated beside the values; details: 10 µM
Sequence (Q9Y336 whole entry): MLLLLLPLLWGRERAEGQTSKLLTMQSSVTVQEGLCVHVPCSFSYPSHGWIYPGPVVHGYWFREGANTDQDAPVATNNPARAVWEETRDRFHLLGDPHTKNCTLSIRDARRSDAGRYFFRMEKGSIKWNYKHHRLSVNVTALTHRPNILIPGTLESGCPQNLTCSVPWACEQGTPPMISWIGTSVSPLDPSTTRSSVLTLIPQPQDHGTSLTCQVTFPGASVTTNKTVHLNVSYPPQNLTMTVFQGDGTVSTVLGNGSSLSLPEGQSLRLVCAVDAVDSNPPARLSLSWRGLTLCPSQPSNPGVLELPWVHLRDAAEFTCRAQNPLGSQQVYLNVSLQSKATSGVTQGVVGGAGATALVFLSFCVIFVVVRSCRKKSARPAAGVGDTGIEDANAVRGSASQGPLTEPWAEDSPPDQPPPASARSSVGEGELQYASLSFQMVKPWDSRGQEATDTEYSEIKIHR
Answer in %, number only, no unit symbol.

// worked examples, Percent Effect included
CC(C)N(C)Cc1cn2c(n1)CN(C(=O)Cc1ccsc1)CC2: 1.25
Cc1nn(C)c(C)c1C1CCCN1C(=O)CCNc1ncccn1 (centres undefined): 11.3
NC(=O)C1CCN(C(=O)c2ccn(-c3ccc(F)cc3)n2)C1 (centres undefined): -2.22
Cc1cc(CN2CCN(C(=O)NCc3ccc(C)s3)CC2)no1: 3.54
Cc1cc(C[S+]([O-])CC(=O)Nc2c(C)cccc2C)no1 (centres undefined): 7.26

Entry `c1cnc(N2C[C@H]3CCN(c4cccnc4)C[C@H]3C2)nc1` ; assay system Sialic acid-binding Ig-like lectin 9 (Homo sapiens) (UniProt Q9Y336); Percent Effect recorded at -2.92

Record for CSCc1cccc(C(=O)N2CCN(CC(C)O)CC2)c1 (centres undefined) under target or system Sialic acid-binding Ig-like lectin 9 (Homo sapiens) (UniProt Q9Y336): Percent Effect reported as 3.73

Record for CC(NC(=O)NCc1cc[nH]n1)c1ccc2c(c1)CCC(=O)N2 (centres undefined) under target or system Sialic acid-binding Ig-like lectin 9 (Homo sapiens) (UniProt Q9Y336): Percent Effect reported as 10.7

Bench note, Sialic acid-binding Ig-like lectin 9 (Homo sapiens) (UniProt Q9Y336): entry `CC(C)N1CCc2c(C#N)c(NCc3ccco3)n3cnnc3c2C1` , its Percent Effect = -3.12

Measured Percent Effect for this entry Cc1n[nH]c(C2CN(C(=O)c3cc(Cl)c[nH]3)CCO2)n1 (centres undefined) on Sialic acid-binding Ig-like lectin 9 (Homo sapiens) (UniProt Q9Y336): -0.307

----------
Below: a set of entries, each annotated with reported Percent Effect.
biological target: AMP-activated protein kinase, AMPK (Homo sapiens) (UniProt P54646+O43741+P54619+Q9UGJ0+Q9Y478+Q13131+Q9UGI9); assay: AMP-dependent Kinase enzyme assay. An in vitro enzyme assay that detects ADP turnover that is directly proportional to AMPK activity. This uses naive AMPK that is activated during the assay with MK-8722; format: functional; parameters: scale not given: direction of the effect not stated beside the values; conditions: 30 µM
Return type: number; implicit unit %.

Cn1nc(C2CCCN(C(=O)Cc3ccsc3)C2)c2nccnc21 (centres undefined): 7.86
CCS(=O)(=O)c1ccc(N2CCC(NC(C)=O)CC2)cc1: 0.562
NC(=O)N1CC[C@H](O)[C@@H]1Cc1cccnc1: 6.84
Cc1noc([C@H]2C[C@H]3OCC[C@H]3N(S(=O)(=O)C3CC3)C2)n1: -4.86

GET /value?item= COc1c(C2CCCN2C(=O)c2ccc3cc[nH]c3c2)c(C)nn1C (centres undefined) &field=Percent Effect returns 1.47

Recorded Percent Effect (compound Cc1cn2c(n1)CCC(NC(=O)c1ccc(CS(C)(=O)=O)o1)C2 (centres undefined) ): 0.931

----------
Each entry below carries its reported Percent Effect.
biological target: Chromo domain-containing protein 1 (Saccharomyces cerevisiae (strain ATCC 204508 / S288c) (Baker's yeast)); assay: ScCHD-1 Enzyme Inhibition Assay; format: functional; set-up: scale not given: in the data most compounds retested in dose-response had high values; details: 30 µM
The reply should be a number in %, with the unit left off.

Worked cases, Percent Effect given:
CNC(=O)c1cc2c(nc1NCC(C)C)CCN(S(=O)(=O)C1CC1)CC2: -4.29
COCc1cc(NCc2cc(F)ccc2F)n2nccc2n1: -6.68
Cc1cc(N2CCCCCC2)n2nc(C)c(C)c2n1: -7.26
Cc1ccc(CNC(=O)CN2C=Nc3ccccc3S2(=O)=O)s1: -6.54
Cc1ncsc1CCC(=O)NCc1cc2n(n1)CCN(C(=O)N(C)C)C2: -1.68
O=C(Cn1nc2c(cc1=O)CSCC2)NC(Cc1ccccc1)C(=O)O (stereo not given): -19

For this compound ( COc1cc(CC(O)CO)c(OC)c2c1OCO2 (stereo not given) ), measured Percent Effect is -21.2

In plain terms, Cc1cc(CNC(=O)NC(C)c2ccncc2)no1 (stereo not given) has a documented Percent Effect of -1.85

Per the records, this compound ( `Cn1cc(C(=O)NCC2CCN(C(=O)NCC(F)(F)F)CC2)cn1` ) has Percent Effect equal to -22.3

The compound `CCCS(=O)(=O)N1CCC(NC(=O)c2cc(C)c(CC)s2)CC1` showed Percent Effect equal to 1.12

// sample `O=C(Cc1ccccn1)N1CCN(C(=O)c2cccc3[nH]ncc23)CC1` , its Percent Effect was -0.724

// Percent Effect lookup, compound = `CCN(C)c1ncnc2c1CCN(Cc1csc(C)n1)CC2` , result: -2.96

For record c1nc(CCC2CCCN2)cc(N2CCCOCC2)n1 (stereo not given) the listed Percent Effect is -5.74

Measured Percent Effect, Cc1ccc(CC(=O)N2CCCC(c3cc(C)[nH]n3)C2)cn1 (stereo not given) : -0.933

----------
biological target: Protein translocase subunit SecA (Escherichia coli (strain K12)); assay: Assay to Identify E. coli SecA ATPase Inhibitors; assay type: functional; set-up: scale not given: direction of the effect not stated beside the values; conditions: 30 µM
Entries with a potency or affinity are not part of this list.
Property: Percent Effect; scope: individual compounds
Give the number; % is assumed, so skip it.

CNS(=O)(=O)c1cccc(C(C)NCc2ccccc2)c1 (stereo unspecified): -0.281
COc1cccc(C(=O)N2CCc3ncnc(C)c3CC2)c1: -2.5
Cn1cnc2c1CCN(CCCOc1ccc(C#N)cc1)C2: -7.51
COc1ccccc1CC(=O)NCc1c(C)nc2cc(=O)[nH]n2c1C: -2.98
CCc1ccc(C(=O)N2CCN(CCS(C)(=O)=O)CC2)o1: -3.79

Consider CC(C)C(C(=O)N1CCN(Cc2ccncc2)CC1)n1cncn1 (stereo unspecified) . Its measured Percent Effect is -4.08

----------
compounds and their reported Percent Effect
target: Tyrosyl-tRNA synthetase, putative (Trypanosoma cruzi (strain CL Brener)) (UniProt Q4DSP6); assay: Trypanosoma cruzi tyrosyl tRNA synthetase (TcYRS) _High Tyrosine SOP; type: functional; design: scale not given: in the data most compounds retested in dose-response had high values; settings: 30 µM
Sequence (Q4DSP6 as listed by the source): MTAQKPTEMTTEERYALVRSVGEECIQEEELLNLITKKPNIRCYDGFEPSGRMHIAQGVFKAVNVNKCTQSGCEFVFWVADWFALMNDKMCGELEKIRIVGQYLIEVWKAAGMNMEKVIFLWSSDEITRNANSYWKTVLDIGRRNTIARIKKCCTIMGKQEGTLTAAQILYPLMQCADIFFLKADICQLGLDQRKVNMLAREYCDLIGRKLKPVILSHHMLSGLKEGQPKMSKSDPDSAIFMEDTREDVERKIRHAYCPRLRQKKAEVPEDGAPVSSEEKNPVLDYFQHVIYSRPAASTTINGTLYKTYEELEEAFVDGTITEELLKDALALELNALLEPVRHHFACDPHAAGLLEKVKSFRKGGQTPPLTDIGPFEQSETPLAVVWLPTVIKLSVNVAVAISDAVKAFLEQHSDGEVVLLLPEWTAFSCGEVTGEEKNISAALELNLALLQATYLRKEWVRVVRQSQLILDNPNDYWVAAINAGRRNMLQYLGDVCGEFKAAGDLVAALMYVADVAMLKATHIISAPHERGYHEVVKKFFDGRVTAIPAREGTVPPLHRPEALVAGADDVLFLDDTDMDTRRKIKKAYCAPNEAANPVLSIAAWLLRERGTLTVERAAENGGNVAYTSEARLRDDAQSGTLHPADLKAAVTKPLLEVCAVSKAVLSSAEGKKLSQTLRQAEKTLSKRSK
The reply should contain only the number, in %.

Solved entries (count: 5):
COc1ccccc1CCNC(=O)CN1CCCC1c1noc(C)n1 (stereo unspecified): 4.41
Cc1cc(C)n(CC2CN(CC(=O)NC3CCCC3)CCO2)n1 (stereo unspecified): 1.94
O=C(Cc1ccc(O)c(Cl)c1)N1CCCCC1CCn1cccn1 (stereo unspecified): 3.7
CC(NC(=O)NCCCOC1CCCCC1)c1nncn1C (stereo unspecified): 3.96
Cc1cc(CN2CCN(CC(O)c3ccccc3)CC2)no1 (stereo unspecified): 6.4

// next item, Percent Effect requested
Here Cc1cc(C(=O)N2CCCC(n3cncn3)C2)c(C)n1C1CC1 (stereo unspecified) was tested on Tyrosyl-tRNA synthetase, putative (Trypanosoma cruzi (strain CL Brener)) (UniProt Q4DSP6), and its Percent Effect came to 2.08
